Ref: paper PMC10854695

pIC50: −log10 of the molar value.
C32 melanoma cells pIC50 data

Solved cases below.
COc1cc(-c2cc(=O)c3c(O)cc(O)c([C@@H]4OC[C@@H](O)[C@H](O)[C@H]4O[C@@H]4O[C@H](CO)[C@@H](OC(C)=O)[C@H](O)[C@H]4O)c3o2)ccc1OC(C)=O [Compound 12]    < 3.70
COc1cc(-c2cc(=O)c3c(O)cc(O)c(C4OCC(O)C(O)C4OC4OC(CO)C(OC(C)=O)C(O)C4O)c3o2)ccc1OC(C)=O (stereo not drawn) [Compound 13]    < 3.70

Now consider a different compound.
pIC50 recorded for this compound, O=c1cc(-c2ccc(O)c(O)c2)oc2cc(OC3OC(CO)C(O)C(O)C3OC3OCC(O)C(O)C3O)cc(O)c12 (stereo not drawn) [Compound 9, luteolin 7-O-sambubioside] , is < 3.70

###

Each record here notes measured IC50.
# System: C32 melanoma cells
# METHOD NOTES: Neutral red uptake (NRU) assay, C32
# ASSAY CONDITIONS: Homo sapiens, C32, 48 h, read-out: IC50, cytotoxic activity, NRU assay, C32, 48 h
Provide the reading as a plain figure in µM.

Solved cases below.
O=c1c(O)c(-c2ccc(O)cc2)oc2cc(O)cc(O)c12 [Compound 18, kaempferol]    62.8
O=c1cc(-c2ccc(O)c(O)c2)oc2cc(OC3OC(CO)C(O)C(O)C3O)cc(O)c12 (stereo not drawn) [Compound 7, luteolin 7-O-glucoside]    29.6
COc1c(O)cc(O)c2c(=O)c(O)c(-c3ccc(O)cc3)oc12 [Compound 19, 8-methoxykaempferol]    88.8
COc1ccc([C@@H]2CC(=O)c3c(O)cc(O)cc3O2)cc1O [Compound 33, hesperetin]    58.3
O=c1cc(-c2ccc(O)c(O)c2)oc2cc(O)cc(O)c12 [Compound 6, luteolin]    13.1
O=c1cc(-c2ccccc2)oc2ccc(O)c(O)c12 [Compound 15, 5,6-dihydroxyflavone]    18.2

# IC50 measured on C32 melanoma cells for item O=c1cc(-c2ccccc2)oc2cc(O)cc(O)c12 [Compound 14, chrysin] = 44.7

# IC50 measured on C32 melanoma cells for item O=c1cc(-c2ccc(O)cc2)oc2cc(O)cc(O)c12 [Compound 1, apigenin] = 25.7

###

# Tested on: A375 melanoma cells
# METHOD NOTES: [3H]-thymidine incorporation (DNA biosynthesis), A375
# Format: cell-based, human
# ASSAY CONDITIONS: A375, 24 h; read-out: IC50, effect on DNA biosynthesis ([3H]-thymidine incorporation)
METRIC: pIC50
Please express pIC50 as -log10 of the molar concentration.

# pIC50 measured on A375 melanoma cells for item N.N.[Cl][Pt][Cl] [cPt, cisplatin, reference compound] = 5.42

###

Each record here notes measured IC50.
# Test system: C32 melanoma cells
# METHOD NOTES: Neutral red uptake (NRU) assay, C32
# ASSAY CONDITIONS: read-out: IC50, cytotoxic activity, NRU assay; C32, 48 h

IC50 recorded for this compound, COc1ccc(-c2cc(=O)c3c(O)cc(O)c([C@@H]4OC[C@@H](O)[C@H](O)[C@H]4O[C@@H]4O[C@H](CO)[C@@H](O)[C@H](O)[C@H]4O)c3o2)cc1O [Compound 11] , is > 200 µM

IC50 recorded for this compound, CC(=O)Oc1ccc(-c2cc(=O)c3c(O)cc(O)c([C@@H]4OC[C@@H](O)[C@H](O)[C@H]4O[C@@H]4O[C@H](CO)[C@@H](O)[C@H](O)[C@H]4O)c3o2)cc1O [Compound 10] , is > 200 µM
